# target: GlcNAc(b1-3)Gal(b1-4)GlcNAc(b1-3)Gal(b1-4)GlcNAc(b1-2)Man(a1-3)[GlcNAc(b1-3)Gal(b1-4)GlcNAc(b1-3)Gal(b1-4)GlcNAc(b1-2)Man(a1-6)]Man(b1-4)GlcNAc(b1-4)GlcNAc
# protocol text: glycan array binding signal (z-score within array); higher = stronger binding
# measurement context: glycan notation: IUPAC condensed, linker removed
About 410 targets per protein were measured; listed, in parts, are those with the strongest signals and a random draw of the rest.
// values below are reported glycan array binding signal (z-score)
Answer as a number with no unit attached.

Entry under review: Clec12b (Mus musculus), Q149M0 (protein) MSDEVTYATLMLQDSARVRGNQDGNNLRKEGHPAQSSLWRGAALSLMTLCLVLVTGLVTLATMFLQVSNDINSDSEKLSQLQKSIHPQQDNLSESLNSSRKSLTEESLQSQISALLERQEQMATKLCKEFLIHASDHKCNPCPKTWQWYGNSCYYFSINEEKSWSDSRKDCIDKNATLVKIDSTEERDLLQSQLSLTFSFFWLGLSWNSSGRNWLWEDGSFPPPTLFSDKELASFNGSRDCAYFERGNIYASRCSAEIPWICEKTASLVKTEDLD . Reported glycan array binding signal (z-score)?
-0.27

Entry under review: PpFlo2 (Pichia pastoris) (protein) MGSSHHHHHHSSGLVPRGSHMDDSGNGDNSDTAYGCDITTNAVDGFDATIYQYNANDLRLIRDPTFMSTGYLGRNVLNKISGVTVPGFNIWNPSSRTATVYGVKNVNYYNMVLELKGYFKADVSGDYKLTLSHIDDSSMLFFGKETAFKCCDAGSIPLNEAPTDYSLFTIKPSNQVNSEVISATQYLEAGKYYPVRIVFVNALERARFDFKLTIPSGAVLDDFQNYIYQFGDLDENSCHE . Reported glycan array binding signal (z-score)?
3.9
